Catalogue of kon values
Molecular target: T1, Dimeric human CD48-mFc (human)
T1 construct: the whole entry is the construct; also called hCD48-mFc
T1 chain: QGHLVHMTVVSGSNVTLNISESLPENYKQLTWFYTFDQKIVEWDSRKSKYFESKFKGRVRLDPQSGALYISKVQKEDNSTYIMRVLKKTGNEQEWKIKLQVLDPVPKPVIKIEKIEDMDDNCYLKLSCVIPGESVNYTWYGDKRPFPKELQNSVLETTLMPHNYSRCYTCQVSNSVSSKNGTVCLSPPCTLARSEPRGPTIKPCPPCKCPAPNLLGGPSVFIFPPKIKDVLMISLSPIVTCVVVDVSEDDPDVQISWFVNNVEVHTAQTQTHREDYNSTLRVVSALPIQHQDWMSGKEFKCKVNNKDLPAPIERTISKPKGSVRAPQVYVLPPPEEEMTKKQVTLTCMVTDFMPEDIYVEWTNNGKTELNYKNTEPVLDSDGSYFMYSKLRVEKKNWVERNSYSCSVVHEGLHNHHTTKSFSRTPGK
Assay: SPR (Biacore), antibody captured by anti-Fc, CD48 in solution, 37 C
Procedure: Measurements were conducted on a T100-2 BIACORE™ instrument (Biacore Life Sciences division of GE Healthcare, Piscataway, N.J.). […] The soluble CD48 was applied to the flow cell in separate injections at different concentrations, and kinetic association (kₐ) and dissociation (kd) rate constants were determined by fits to the kinetic binding data using Biacore software. […]
Please respond with the number in M⁻¹ s⁻¹ and leave the unit unwritten.

Examples with answers:
# binder, unit-tag, kon
data = [
    ("H4H1778P (antibody, human IgG4, V domains shown, Human IgG4 Fc (H4H)) VH: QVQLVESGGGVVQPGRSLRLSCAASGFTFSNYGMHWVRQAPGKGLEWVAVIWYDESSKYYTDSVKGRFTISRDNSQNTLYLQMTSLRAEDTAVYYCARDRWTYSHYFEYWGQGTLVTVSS VL: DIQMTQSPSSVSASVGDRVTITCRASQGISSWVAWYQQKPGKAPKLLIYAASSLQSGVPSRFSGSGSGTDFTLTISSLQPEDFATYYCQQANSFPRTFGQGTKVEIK", "M⁻¹ s⁻¹", 473000),
    ("H2M1710N (antibody, mouse IgG2, V domains shown, Human variable domains, mouse IgG2 Fc (H2M)) VH: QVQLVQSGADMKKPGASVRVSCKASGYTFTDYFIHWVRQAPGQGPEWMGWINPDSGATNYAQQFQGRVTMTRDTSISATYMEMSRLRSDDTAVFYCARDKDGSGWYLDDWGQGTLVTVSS VL: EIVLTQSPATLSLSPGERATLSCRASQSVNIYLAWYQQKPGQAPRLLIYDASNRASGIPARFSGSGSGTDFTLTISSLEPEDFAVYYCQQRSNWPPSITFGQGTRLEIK", "M⁻¹ s⁻¹", 481000),
    ("H4H1763N (antibody, V domains shown, Human IgG4 Fc (H4H)) VH: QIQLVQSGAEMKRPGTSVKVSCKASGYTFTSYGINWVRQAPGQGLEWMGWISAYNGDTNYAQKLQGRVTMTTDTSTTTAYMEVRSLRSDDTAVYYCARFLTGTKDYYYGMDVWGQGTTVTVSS VL: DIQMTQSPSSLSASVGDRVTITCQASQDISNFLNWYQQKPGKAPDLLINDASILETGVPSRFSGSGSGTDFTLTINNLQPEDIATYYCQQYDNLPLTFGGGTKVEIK", "M⁻¹ s⁻¹", "2.35e+06"),
    ("H2M1763N (antibody, mouse IgG2, V domains shown, Human variable domains, mouse IgG2 Fc (H2M)) VH: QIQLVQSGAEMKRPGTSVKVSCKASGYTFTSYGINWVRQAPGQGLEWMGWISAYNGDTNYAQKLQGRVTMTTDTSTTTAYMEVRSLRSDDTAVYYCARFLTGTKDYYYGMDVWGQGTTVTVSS VL: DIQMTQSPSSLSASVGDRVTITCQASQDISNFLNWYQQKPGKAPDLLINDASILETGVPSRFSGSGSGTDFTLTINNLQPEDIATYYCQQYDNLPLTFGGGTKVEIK", "M⁻¹ s⁻¹", "3.02e+06"),
    ("H2M1709N (antibody, mouse IgG2, V domains shown, Human variable domains, mouse IgG2 Fc (H2M)) VH: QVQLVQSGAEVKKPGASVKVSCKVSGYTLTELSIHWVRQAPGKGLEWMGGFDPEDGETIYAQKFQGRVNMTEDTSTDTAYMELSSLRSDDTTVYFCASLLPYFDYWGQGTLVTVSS VL: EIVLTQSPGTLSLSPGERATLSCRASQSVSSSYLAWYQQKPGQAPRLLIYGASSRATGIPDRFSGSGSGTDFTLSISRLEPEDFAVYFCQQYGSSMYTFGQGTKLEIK", "M⁻¹ s⁻¹", "1.52e+06"),
]

Next binder, kon to be filled in.
**Q:** Retrieve kon measured for H4H1774P (antibody, human IgG4, V domains shown, Human IgG4 Fc (H4H)) VH: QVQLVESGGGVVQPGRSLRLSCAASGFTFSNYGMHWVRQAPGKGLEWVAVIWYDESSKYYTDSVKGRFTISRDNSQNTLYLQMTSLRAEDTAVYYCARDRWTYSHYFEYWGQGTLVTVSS VL: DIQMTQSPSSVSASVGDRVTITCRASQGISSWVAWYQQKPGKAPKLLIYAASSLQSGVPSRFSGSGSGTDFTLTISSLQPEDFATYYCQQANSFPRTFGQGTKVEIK and print it.
**A:** 363000
